# target-system: GST-Nv-NF-kB (Cys allele) (Nematostella vectensis, UniProt E5G601 2-411)
# Sequence: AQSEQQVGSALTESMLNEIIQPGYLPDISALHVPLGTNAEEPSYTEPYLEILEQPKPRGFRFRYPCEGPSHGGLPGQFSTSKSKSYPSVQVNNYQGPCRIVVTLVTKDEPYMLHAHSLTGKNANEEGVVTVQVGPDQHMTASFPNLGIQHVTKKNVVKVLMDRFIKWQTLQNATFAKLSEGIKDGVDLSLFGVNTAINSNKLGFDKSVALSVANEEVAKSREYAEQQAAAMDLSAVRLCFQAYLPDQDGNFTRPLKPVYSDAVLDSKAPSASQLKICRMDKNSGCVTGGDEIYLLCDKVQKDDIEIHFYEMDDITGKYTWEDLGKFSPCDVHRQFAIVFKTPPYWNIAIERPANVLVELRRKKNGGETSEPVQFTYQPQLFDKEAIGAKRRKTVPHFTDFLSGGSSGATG
# test-name: protein-binding microarray (PBM); PBM: ~300 nM protein, 6 mM HEPES pH 7.8, 80 mM KCl, 0.5 mM EDTA, 0.5 mM EGTA, 6% glycerol, 35 ng/ul poly-dIdC, 1% milk, 1 h, room temperature; high values mean tight binding
# experimental-conditions: dsDNA, one strand shown
Note to self: values exactly at 5 z-score are yes. So binding signal at or above 5 z-score is yes, below is no.

Worked cases, answers included:
CCGATTAACATCAGGGGAGAAACTGATGTTAATCGGGTCTTGATTCGCTTGACGCTGCTG no
CCGATTAACATCACTCTTTCCCCTGATGTTAATCGGGTCTTGATTCGCTTGACGCTGCTG yes
CCGATTAACATCAAATATACCCATGATGTTAATCGGGTCTTGATTCGCTTGACGCTGCTG no
CCGATTAACATCACTCATCCCCGTGATGTTAATCGGGTCTTGATTCGCTTGACGCTGCTG no
CCGATTAACATCAAAATTCCCTGTGATGTTAATCGGGTCTTGATTCGCTTGACGCTGCTG yes

Dear colleague, could you confirm whether CCGATTAACATCAAAGTTCCCCCTGATGTTAATCGGGTCTTGATTCGCTTGACGCTGCTG has binding signal at or above 5 z-score? yes

Check the entry CCGATTAACATCACAACACCCCCTGATGTTAATCGGGTCTTGATTCGCTTGACGCTGCTG : does binding signal equal or exceed 5 z-score? no

Given CCGATTAACATCAGTGGGAAAAATGATGTTAATCGGGTCTTGATTCGCTTGACGCTGCTG , state whether its binding signal is at least 5 z-score. no

Decide: binding signal of CCGATTAACATCAATTTTCCCACTGATGTTAATCGGGTCTTGATTCGCTTGACGCTGCTG >= 5 z-score? no

###

# target-system: GST-Hu-p50 (Homo sapiens, UniProt P19838 7-356)
# Sequence (P19838 7-356): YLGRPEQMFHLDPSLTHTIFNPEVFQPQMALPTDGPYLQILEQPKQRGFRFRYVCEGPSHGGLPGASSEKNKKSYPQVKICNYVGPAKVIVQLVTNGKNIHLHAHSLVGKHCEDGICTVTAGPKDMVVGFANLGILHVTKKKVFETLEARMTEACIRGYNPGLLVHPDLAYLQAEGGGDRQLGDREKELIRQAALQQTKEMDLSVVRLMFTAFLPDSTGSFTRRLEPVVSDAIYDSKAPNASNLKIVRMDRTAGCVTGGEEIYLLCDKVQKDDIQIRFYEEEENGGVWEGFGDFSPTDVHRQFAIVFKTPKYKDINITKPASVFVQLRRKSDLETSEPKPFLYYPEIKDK
# test-name: protein-binding microarray (PBM); PBM: ~300 nM protein, 6 mM HEPES pH 7.8, 80 mM KCl, 0.5 mM EDTA, 0.5 mM EGTA, 6% glycerol, 35 ng/ul poly-dIdC, 1% milk, 1 h, room temperature; high values mean tight binding
# experimental-conditions: dsDNA, one strand shown
parameter-measured: binding signal
Quick note: unit goes after the number.

Past entries and their recorded results:
CCGATTAACATCAGGGGGGAACATGATGTTAATCGGGTCTTGATTCGCTTGACGCTGCTG 5.4 z-score
CCGATTAACATCAGGGGGATGCATGATGTTAATCGGGTCTTGATTCGCTTGACGCTGCTG 4.84 z-score
CCGATTAACATCAAAATACCCCCTGATGTTAATCGGGTCTTGATTCGCTTGACGCTGCTG 6.58 z-score
CCGATTAACATCATAATCCCCCATGATGTTAATCGGGTCTTGATTCGCTTGACGCTGCTG 6.67 z-score
CCGATTAACATCAGGGGAAATAATGATGTTAATCGGGTCTTGATTCGCTTGACGCTGCTG 6.58 z-score
CCGATTAACATCAGGACTTCCCCTGATGTTAATCGGGTCTTGATTCGCTTGACGCTGCTG 6.36 z-score
CCGATTAACATCAAGTCTCCCCCTGATGTTAATCGGGTCTTGATTCGCTTGACGCTGCTG 5.75 z-score
CCGATTAACATCACCAACCCCCCTGATGTTAATCGGGTCTTGATTCGCTTGACGCTGCTG 4.51 z-score

// batch mode: one binding signal value per listed entry
1. CCGATTAACATCAAGCATTTCCCTGATGTTAATCGGGTCTTGATTCGCTTGACGCTGCTG
2. CCGATTAACATCAACGGATTCCCTGATGTTAATCGGGTCTTGATTCGCTTGACGCTGCTG
3. CCGATTAACATCACGGGTTTTCCTGATGTTAATCGGGTCTTGATTCGCTTGACGCTGCTG
4. CCGATTAACATCAAAAAGCCCCGTGATGTTAATCGGGTCTTGATTCGCTTGACGCTGCTG
5. CCGATTAACATCAGAAATGTCCCTGATGTTAATCGGGTCTTGATTCGCTTGACGCTGCTG
6. CCGATTAACATCAAAATTACCCCTGATGTTAATCGGGTCTTGATTCGCTTGACGCTGCTG

1. 2.72 z-score
2. 1.77 z-score
3. 2.29 z-score
4. 6.06 z-score
5. 4.36 z-score
6. 5.3 z-score

For each entry beneath this line, provide reported binding signal.
1. CCGATTAACATCAAAGGACCCCCTGATGTTAATCGGGTCTTGATTCGCTTGACGCTGCTG
2. CCGATTAACATCACTTATCCCCCTGATGTTAATCGGGTCTTGATTCGCTTGACGCTGCTG
3. CCGATTAACATCAGGAAAACCCCTGATGTTAATCGGGTCTTGATTCGCTTGACGCTGCTG
4. CCGATTAACATCAGGCAAACCCCTGATGTTAATCGGGTCTTGATTCGCTTGACGCTGCTG

3.2 z-score
4.19 z-score
7.4 z-score
3.63 z-score

###

# target-system: GST-Aq-NF-kB (Amphimedon queenslandica, UniProt A9Y5G7 2-389)
# Sequence: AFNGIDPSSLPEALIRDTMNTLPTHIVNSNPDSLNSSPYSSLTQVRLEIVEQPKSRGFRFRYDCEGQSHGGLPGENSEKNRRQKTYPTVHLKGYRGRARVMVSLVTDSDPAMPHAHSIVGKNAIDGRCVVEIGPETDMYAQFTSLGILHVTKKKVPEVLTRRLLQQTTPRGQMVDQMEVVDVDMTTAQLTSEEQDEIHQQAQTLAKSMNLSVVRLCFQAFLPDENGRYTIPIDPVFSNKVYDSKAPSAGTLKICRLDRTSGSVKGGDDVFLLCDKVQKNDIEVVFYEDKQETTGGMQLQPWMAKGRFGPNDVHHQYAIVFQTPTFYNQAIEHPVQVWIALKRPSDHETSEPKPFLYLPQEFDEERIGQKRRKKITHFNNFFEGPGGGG
# test-name: protein-binding microarray (PBM); PBM: ~300 nM protein, 6 mM HEPES pH 7.8, 80 mM KCl, 0.5 mM EDTA, 0.5 mM EGTA, 6% glycerol, 35 ng/ul poly-dIdC, 1% milk, 1 h, room temperature; Ap Aiptasia and Nv Nematostella (sea anemones) / Co Capsaspora / Aq Amphimedon (sponge) / Dm Drosophila / Hu human; RHD is the Rel homology domain; high values mean tight binding
# experimental-conditions: dsDNA, one strand shown
Please assign a class to every record based on measured binding signal, with ranges low (below 2 z-score), middle (2 z-score to below 4 z-score), high (4 z-score or more)

Which category fits this record: CCGATTAACATCATGATGGGAAATGATGTTAATCGGGTCTTGATTCGCTTGACGCTGCTG low

// bin(item) where item = CCGATTAACATCAAGTACGGGAATGATGTTAATCGGGTCTTGATTCGCTTGACGCTGCTG middle

Lab log: CCGATTAACATCAGGAATCTACCTGATGTTAATCGGGTCTTGATTCGCTTGACGCTGCTG — assign binding signal category middle

Bin? CCGATTAACATCAGGAATTCCGATGATGTTAATCGGGTCTTGATTCGCTTGACGCTGCTG low

Lab note: sort CCGATTAACATCAGGAACCTCCCTGATGTTAATCGGGTCTTGATTCGCTTGACGCTGCTG into the matching binding signal band. high

Assign a bin to CCGATTAACATCAATATCCCCCCTGATGTTAATCGGGTCTTGATTCGCTTGACGCTGCTG high

Quick check: band for CCGATTAACATCATAATGGGAAATGATGTTAATCGGGTCTTGATTCGCTTGACGCTGCTG low

Which band does CCGATTAACATCAAATTCCCATGTGATGTTAATCGGGTCTTGATTCGCTTGACGCTGCTG fall in? middle

Category of CCGATTAACATCAGGAAATTCTATGATGTTAATCGGGTCTTGATTCGCTTGACGCTGCTG : low

Each sequence maps to one class by binding signal. Which class for CCGATTAACATCAGGGGAATGACTGATGTTAATCGGGTCTTGATTCGCTTGACGCTGCTG ? high

State the band of CCGATTAACATCAGGAATATTCCTGATGTTAATCGGGTCTTGATTCGCTTGACGCTGCTG low

For CCGATTAACATCAAACAATCCCCTGATGTTAATCGGGTCTTGATTCGCTTGACGCTGCTG , which binding signal bin applies? high
